Molecular target: Fructose-bisphosphate aldolase (Mycobacterium tuberculosis)
Sequence (P9WQA3 whole entry): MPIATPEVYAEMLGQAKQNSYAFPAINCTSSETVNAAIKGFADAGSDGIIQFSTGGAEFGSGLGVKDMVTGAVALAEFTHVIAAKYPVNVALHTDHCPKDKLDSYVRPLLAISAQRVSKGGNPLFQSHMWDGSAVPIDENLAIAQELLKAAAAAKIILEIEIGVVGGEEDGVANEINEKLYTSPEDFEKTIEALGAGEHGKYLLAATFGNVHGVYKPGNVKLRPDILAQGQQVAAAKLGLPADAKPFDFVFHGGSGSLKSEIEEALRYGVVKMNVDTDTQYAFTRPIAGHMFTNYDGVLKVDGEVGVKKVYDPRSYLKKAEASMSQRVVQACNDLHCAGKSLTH
Assay: Fluorescence-based biochemical high throughput dose response assay for inhibitors of the fructose-bisphosphate aldolase (FBA) of M. tuberculosis.
Format: functional
Active and inactive are the calls of the source. How the calls were made is not given here.
Entries and their IC50 values follow.
observationType: IC50

[[record]]
compound = "N=c1c(C(=O)NC2CCCCC2)cc2c(=O)n3ccccc3nc2n1Cc1ccco1"
observationtype = "IC50"
recordedvalue = "3710 nM (active)"

[[record]]
compound = "Cc1cccn2c(=O)c3cc(C(=O)NC4CCCC4)c(=N)n(C4CCCCC4)c3nc12"
observationtype = "IC50"
recordedvalue = "469 nM (active)"

[[record]]
compound = "CC1(C(=O)Nc2ccccc2)Cc2c(-c3ccc4c(c3)OCO4)ccnc2O1 (centres undefined)"
observationtype = "IC50"
recordedvalue = "2520 nM (active)"

[[record]]
compound = "Cc1cc(C)nc(SCc2nc3ncccn3c2Br)n1"
observationtype = "IC50"
recordedvalue = "1470 nM (active)"

